assay: Elimination half life in rat at 3 mg/kg, po measured after 24 hrs; assay type: ADME, organism-based; settings: in vivo, read-out: beta t1/2 (converted)
readout_label: half-life
Reply with the number, then its unit.

The recorded half-life for entry `CCCCS(=O)(=O)Oc1ccc(/C=C/C(=O)OCC)cc1OC` equals 1.32 h

###

assay: Volume of distribution in rat at 1 mg/kg, iv measured after 24 hrs; type: ADME, organism-based; conditions: in vivo
readout_label: Vd (L/kg)
The reply should contain only the number, in L/kg.

The recorded Vd for entry `CCCCS(=O)(=O)Oc1ccc(/C=C/C(=O)OCC)cc1OC` equals 0.996

###

assay: AUC(0 to t) in rat at 1 mg/kg, iv measured after 24 hrs; assay type: ADME, organism-based; set-up: dose 1 mg/kg, time 24 hrs, route iv; conditions: in vivo
readout_label: AUC(0-t) at 24 h (ng·h/mL)
The reply should contain only the number, in ng·h/mL.

The recorded AUC(0-t) at 24 h for entry `CCCCS(=O)(=O)Oc1ccc(/C=C/C(=O)OCC)cc1OC` equals 847

###

assay: Tmax in rat at 1 mg/kg, iv measured after 24 hrs; type: ADME, organism-based; settings: in vivo
readout_label: Tmax
Reply with the number, then its unit.

The recorded Tmax for entry `CCCCS(=O)(=O)Oc1ccc(/C=C/C(=O)OCC)cc1OC` equals 6 min

###

experiment: Cytotoxicity against human L02 cells assessed as reduction in cell viability incubated for 24 hrs by MTT assay; type: toxicity, cell-based
readout_label: CC50 at 24 h
Reply with the number, then its unit.

The recorded CC50 at 24 h for entry `CCCCS(=O)(=O)Oc1ccc(/C=C/C(=O)Nc2ccc(C)cc2)cc1OC` equals 26.8 µM

The recorded CC50 at 24 h for entry `CCCCS(=O)(=O)Oc1ccc(/C=C/C(=O)Nc2ccc(CC)cc2)cc1OC` equals 89 µM

The recorded CC50 at 24 h for entry `CCCCS(=O)(=O)Oc1ccc(/C=C/C(=O)OCCC)cc1OC` equals 61.8 µM

The recorded CC50 at 24 h for entry `COC(=O)/C=C/c1ccc(OS(=O)(=O)c2ccc(Cl)cc2)c(OC)c1` equals 99.5 µM

The recorded CC50 at 24 h for entry `COc1cc(/C=C/C(=O)Nc2ccc(I)cc2)ccc1OS(=O)(=O)c1ccc(Cl)cc1` equals 39.4 µM

The recorded CC50 at 24 h for entry `COc1cc(/C=C/C(=O)Nc2cccc(C)c2)ccc1OS(=O)(=O)c1ccc(Cl)cc1` equals 73.5 µM

The recorded CC50 at 24 h for entry `CCCCS(=O)(=O)Oc1ccc(/C=C/C(=O)OCC)cc1OC` equals 14.4 µM

The recorded CC50 at 24 h for entry `CCCOC(=O)/C=C/c1ccc(OS(=O)(=O)c2ccc(Cl)cc2)c(OC)c1` equals 150 µM

The recorded CC50 at 24 h for entry `CCCCS(=O)(=O)Oc1ccc(/C=C/C(=O)OCC(C)C)cc1OC` equals 63.8 µM

The recorded CC50 at 24 h for entry `CCCCS(=O)(=O)Oc1ccc(/C=C/C(=O)Nc2ccccc2C)cc1OC` equals 56.1 µM

###

test: Cytotoxicity against human L02 cells assessed as reduction in cell viability incubated for 24 hrs by MTT assay; format: toxicity, cell-based
readout_label: CC50 at 24 h (µM)
The reply should contain only the number, in µM.

The recorded CC50 at 24 h for entry `CCOC(=O)/C=C/c1ccc(OS(=O)(=O)c2ccc(Cl)cc2)c(OC)c1` equals 137

The recorded CC50 at 24 h for entry `CCCCS(=O)(=O)Oc1ccc(/C=C/C(=O)Nc2ccc(Cl)cc2)cc1OC` equals 81.2

The recorded CC50 at 24 h for entry `CCCCS(=O)(=O)Oc1ccc(/C=C/C(=O)Nc2cccc(C)c2)cc1OC` equals 33.6

The recorded CC50 at 24 h for entry `CCCCOC(=O)/C=C/c1ccc(OS(=O)(=O)c2ccc(Cl)cc2)c(OC)c1` equals 14

The recorded CC50 at 24 h for entry `CCCCS(=O)(=O)Oc1ccc(/C=C/C(=O)OC)cc1OC` equals 208

###

test: AUC(0 to t) in rat at 3 mg/kg, po measured after 24 hrs; type: ADME, organism-based; design: dose 3 mg/kg, time 24 hrs, route po; settings: in vivo
readout_label: AUC(0-t) at 24 h

The recorded AUC(0-t) at 24 h for entry `CCCCS(=O)(=O)Oc1ccc(/C=C/C(=O)OCC)cc1OC` equals 1620 ng·h/mL

###

test: Elimination half life in rat at 1 mg/kg, iv measured after 24 hrs; type: ADME, organism-based; details: in vivo, read-out: beta t1/2 (converted)
readout_label: half-life (min)
The reply should contain only the number, in min.

The recorded half-life for entry `CCCCS(=O)(=O)Oc1ccc(/C=C/C(=O)OCC)cc1OC` equals 34.2

###

test: Clearance in rat at 1 mg/kg, iv measured after 24 hrs; type: ADME, organism-based; conditions: in vivo
readout_label: clearance (mL/min/kg)
The reply should contain only the number, in mL/min/kg.

The recorded clearance for entry `CCCCS(=O)(=O)Oc1ccc(/C=C/C(=O)OCC)cc1OC` equals 19.8

###

assay: Cytotoxicity against human L02 cells assessed as reduction in cell viability incubated for 24 hrs by MTT assay; assay type: toxicity, cell-based
readout_label: CC50 at 24 h (µM)
The reply should contain only the number, in µM.

The recorded CC50 at 24 h for entry `CCCCS(=O)(=O)Oc1ccc(/C=C/C(=O)Nc2ccccc2I)cc1OC` equals 24.5

The recorded CC50 at 24 h for entry `Oc1ncnc2[nH]ncc12` equals 6.84

The recorded CC50 at 24 h for entry `CCCCS(=O)(=O)Oc1ccc(/C=C/C(=O)Nc2ccccc2)cc1OC` equals 3.32

The recorded CC50 at 24 h for entry `CCCCOC(=O)/C=C/c1ccc(OS(=O)(=O)CCCC)c(OC)c1` equals 115

The recorded CC50 at 24 h for entry `CCCCS(=O)(=O)Oc1ccc(/C=C/C(=O)Nc2ccccc2Br)cc1OC` equals 5

The recorded CC50 at 24 h for entry `COc1cc(/C=C/C(=O)OCC(C)C)ccc1OS(=O)(=O)c1ccc(Cl)cc1` equals 102

###

test: Tmax in rat at 3 mg/kg, po measured after 24 hrs; format: ADME, organism-based; details: in vivo
readout_label: Tmax (min)
The reply should contain only the number, in min.

The recorded Tmax for entry `CCCCS(=O)(=O)Oc1ccc(/C=C/C(=O)OCC)cc1OC` equals 8.34
